quantity-kind: melting point

Use the examples below as a reference point.
>  <compound>
NC(=O)C1(C2c3[nH]c4ccc(Cl)cc4c3CCN2C=O)CCC1 (stereo not drawn)

>  <melting point>
> 260 °C

$$$$
>  <compound>
Cc1[nH]cnc1CSCCCN=C(NC#N)NCCc1c[nH]cn1

>  <melting point>
135 to 137 °C

$$$$
>  <compound>
CCCN(c1ccccc1)C1CCN(CCOc2c(C)cccc2C)CC1

>  <melting point>
82 °C

$$$$
>  <compound>
CCCNCCc1cccc(NS(=O)(=O)c2cccc(Cl)c2)c1

>  <melting point>
145 to 148 °C

$$$$
>  <compound>
CCCOc1c(OC)cc(C(C#N)CCC(C#N)c2cc(OC)c(OC)c(OC)c2)cc1SC (stereo not drawn)

>  <melting point>
131 to 132 °C

$$$$

Req: Look up melting point: OC(CCCN1CCCCC1)c1ccc2c(c1)Cc1cc(C(O)CCCN3CCCCC3)ccc1O2 (stereo not drawn)
Resp: 145 to 146 °C

Req: Look up melting point: O=c1nc(-c2ccnc(OCc3ccccc3)c2)sc2ccccc12
Resp: 116 °C

Req: Look up melting point: NC(=O)C1(Nc2ccccc2)CCN([C@H]2CCc3ccccc32)CC1
Resp: 194 to 195 °C

Req: Look up melting point: CCc1cc(COc2nn(Cc3ccccc3)cc2C(=O)O)ccc1OCc1nc(-c2ccco2)oc1C
Resp: 173 to 174 °C

Req: Look up melting point: COc1cc(C(C)=NO)ccc1OCCCN1CCC(c2noc3cc(F)ccc23)CC1
Resp: 168 to 170 °C

###

Some compounds, each annotated with its measured melting point.

>  <compound>
Clc1ccc(N2CCN(Cc3cn4cc(Br)ccc4n3)CC2)c(Cl)c1

>  <melting point>
137 to 138 °C

$$$$
>  <compound>
CCCOc1ccccc1-c1nc2nc(NC(C)=O)ncc2c(=O)[nH]1

>  <melting point>
273 to 274 °C

$$$$
>  <compound>
CN(C)C1CCN(c2nc(N3CCOCC3)c3ncnc(N(Cc4ccccc4)Cc4ccccc4)c3n2)CC1

>  <melting point>
163 °C

$$$$
>  <compound>
CCn1c(C=O)c(-c2ccc(F)cc2)c(C(C)C)c1C(=O)O

>  <melting point>
182 °C

$$$$
>  <compound>
CCOCCOc1ccc(CCNC(=O)/C=C/c2cccs2)cc1S(=O)(=O)NC(=S)NC

>  <melting point>
51 °C

$$$$
>  <compound>
N#CC=Cc1ccc(Br)cc1

>  <melting point>
106 °C

$$$$
>  <compound>
CN1CCC(Cn2nc(-c3c(-c4ccccc4)nn4ccccc34)ccc2=O)CC1

>  <melting point>
180 to 181 °C

$$$$
>  <compound>
[N-]=[N+]=Nc1cc(Oc2ccc3c(c2)CCN3C(=O)Nc2cccc(C(F)(F)F)c2)ncn1

>  <melting point>
167 to 168 °C

$$$$

Req: Look up melting point: O=[N+]([O-])c1ccc(/C=C/c2ccc(Cl)c(C(F)(F)F)c2)cc1
Resp: 173 to 174 °C

Req: Look up melting point: CC1(C#N)CCc2cc(O)c(C(C)(C)C)cc2O1 (stereo not given)
Resp: 153 to 155 °C

Req: Look up melting point: CCCc1nc(C(C)(O)CC)c(C#N)[nH]1 (stereo not given)
Resp: 157 to 159 °C

Req: Look up melting point: COc1ccc(C(=O)Nc2ccc(C(=O)NCc3ccccc3)cc2)cc1C12CC3CC(CC(C3)C1)C2
Resp: 279 to 280 °C

Req: Look up melting point: CNC(=NC#N)NCc1c(C)cc(C)c(CNC(=NC#N)NC)c1C
Resp: 270 to 272 °C

Req: Look up melting point: CCCCCCCCCCCCCCCCOc1ccc(-c2nc(CC(=O)OCC)c(OCC)o2)cc1
Resp: 44 to 45 °C

Req: Look up melting point: CCN(CC)CC#CC(=O)c1ccc(C)cc1
Resp: 115 to 117 °C

Req: Look up melting point: CCOP(=O)(Cc1ccc(C(=O)N(Cc2ccccc2)c2ccc(Cl)cc2)cc1)OCC
Resp: 81 to 82 °C

###

Some molecules, each annotated with its measured melting point.

Use the examples below as a reference point.
>  <molecule>
CS(=O)(=O)OCCCn1cc(C2=C(c3ccccc3[N+](=O)[O-])C(=O)NC2=O)c2ccccc21

>  <melting point>
177 to 178 °C

$$$$
>  <molecule>
COc1nsc(Cl)c1Cl

>  <melting point>
46 to 48 °C

$$$$
>  <molecule>
CCCCc1ccc(C#Cc2ccc(Br)cc2)cc1

>  <melting point>
75.6 to 76.1 °C

$$$$
>  <molecule>
CCCc1nc2c(N)nc3ccccc3c2o1

>  <melting point>
159 to 160 °C

$$$$

Req: Look up melting point: COc1ccccc1OP(=O)(CN(CC#N)N=O)Oc1ccccc1OC
Resp: 83 to 85 °C

Req: Look up melting point: CC(C)C(C)(NC(=O)c1nc2ccccc2cc1C(=O)O)C(N)=O (stereo not given)
Resp: 172 to 174 °C

Req: Look up melting point: COC(=O)c1ccc(-c2ccc3cc(OCCCCC=C=O)c(C45CC6CC(CC(C6)C4)C5)cc3c2)cc1
Resp: 209 to 210 °C

Req: Look up melting point: CC(C)(N)CNC(=O)CNC(=O)c1ccccc1
Resp: 80 to 84 °C

Req: Look up melting point: N#Cc1cnc2cc3c(cc2c1Nc1cccc(Br)c1)OCO3
Resp: 201 to 205 °C

###

quantity-kind: melting point

Use the examples below as a reference point.
>  <molecule>
Cc1cc(CCCCCCCOc2ccc(C3=NCC(CO)O3)cc2)on1 (stereo unspecified)

>  <melting point>
71 to 73 °C

$$$$
>  <molecule>
COc1ccc2c(=O)cc(C(=O)N[C@H]3CCN(C(=O)c4cc(C(F)(F)F)cc(C(F)(F)F)c4)[C@H](Cc4ccc(Cl)cc4)C3)oc2c1

>  <melting point>
198 to 200 °C

$$$$
>  <molecule>
CNC(=S)N1CCSC1c1ccccc1OCCN1CC=C(c2cccc(F)c2)CC1 (stereo unspecified)

>  <melting point>
147 to 148 °C

$$$$

Req: Look up melting point: COC(=O)c1cc2c(cc1[N+](=O)[O-])OCCO2
Resp: 115 to 118 °C

Req: Look up melting point: CC(C(=O)O)c1cccc2c(-c3ccccc3)onc12 (stereo unspecified)
Resp: 140 to 144 °C

Req: Look up melting point: Cc1cc(CCCCCOc2ccc(C3NCCS3)cc2)on1 (stereo unspecified)
Resp: 82 to 84 °C

###

Some compounds, each annotated with its measured melting point.

>  <compound>
COc1ccc(-n2c3ccccc3c3cc(C=C(C#N)c4ccc(F)c(F)c4F)ccc32)cc1

>  <melting point>
124 to 126 °C

$$$$
>  <compound>
Cc1nc2c(N)nc3cc(OCCNC(=O)OC(C)(C)C)ccc3c2n1CC(C)C

>  <melting point>
227 to 228 °C

$$$$
>  <compound>
Cc1ccc(C(C#N)C=Cc2ccc(O)c(O)c2)cc1 (stereo not given)

>  <melting point>
172 °C

$$$$
>  <compound>
CCn1c2ccccc2c2cc(C=C(c3ccccc3)c3ccccc3)ccc21

>  <melting point>
145 to 146 °C

$$$$
>  <compound>
CCCCC(=O)c1c(CN2CCOCC2)nc2cc(OC)c(OC)cc2c1-c1ccc(OC)c(OC)c1

>  <melting point>
137 to 138 °C

$$$$

Req: Look up melting point: O=c1[nH]c(=O)n(CCCl)c2ccccc12
Resp: 189 to 192 °C

Req: Look up melting point: CC(C)CC(N)S(=O)(=O)O (stereo not given)
Resp: 142 to 144 °C

Req: Look up melting point: O=CC12CC(c3ccccc31)c1ccccc12
Resp: 102 °C

Req: Look up melting point: NC(=O)c1cnn(-c2ccc(Cl)nn2)c1N
Resp: 314 to 317 °C

Req: Look up melting point: CCn1c(N)c(C(N)=O)c(=O)c2cnc(Nc3cccc(N4CCOCC4)c3)nc21
Resp: 195 °C

###

quantity-kind: melting point (°C)

>  <compound>
Cc1cccc(COc2ccc(-c3ccc(C(=O)NC(Cc4ccccc4)C(=O)O)cc3)cc2)c1 (stereo not given)

>  <melting point [°C]>
204

$$$$
>  <compound>
C#CCOc1cc(N2C(=O)c3ccccc3C2=O)c(F)cc1C#N

>  <melting point [°C]>
242

$$$$

###

Some compounds, each annotated with its measured melting point.

Use the examples below as a reference point.
>  <compound>
CC(=O)NCCCCNc1ccc(NCCN(C)C)c2c1C(=O)c1ccccc1C2=O

>  <result>
160 to 162 °C

$$$$
>  <compound>
CCOC(=O)Cc1nc(-c2ccc(Cl)cc2)oc1-c1ccsc1

>  <result>
127 to 128 °C

$$$$
>  <compound>
CC(C)Cn1nc(-c2ccc(F)cc2F)cc(CN2C(=O)c3ccccc3C2=O)c1=O

>  <result>
152 to 156 °C

$$$$
>  <compound>
CNc1cc(NS(=O)(=O)c2ccc(N)cc2)cc(C)n1

>  <result>
173 to 175 °C

$$$$
>  <compound>
CCOC(=O)C(=O)N1CCC(Cc2ccc(C(C)(C)C)cc2)CC1

>  <result>
168 °C

$$$$

Req: Look up melting point: C=CCC(C)(C)C(O)C(c1cccc(Cl)c1)n1ccnc1 (centres undefined)
Resp: 95 °C

Req: Look up melting point: Nc1ccc(CNC(=O)C2Cc3ccccc3N2S(=O)(=O)c2ccc(-c3cccc(C(F)(F)F)c3)cc2)cc1 (centres undefined)
Resp: 84 °C

Req: Look up melting point: CC1(C)N=C(c2ccccc2)CC1c1ccccn1 (centres undefined)
Resp: 101 to 102 °C

Req: Look up melting point: Cc1ccc2nc(-c3ccccc3)nc(Cl)c2c1
Resp: 111 to 113 °C

Req: Look up melting point: CCOCc1nc2c(N)nc3cc(-c4cncc(CO)c4)cnc3c2n1CC(C)(C)O
Resp: 212 to 214 °C

Req: Look up melting point: ClCCOc1cccc(OCCCl)c1
Resp: 104 to 105 °C

Req: Look up melting point: CCCN(Cc1ccc(-c2ccccc2-c2nnn[nH]2)cc1)c1ccncc1C(=O)O
Resp: 195 to 200 °C
